Provenance of the data: patent US8586611B2

Each item that follows carries a reported Test C disease rating (100 = 100% disease control, 0 = no disease control).
# System: Phytophthora infestans
# experiment notes: whole plant or invertebrate
# Type: in vivo
# condition details: tomato late blight; spray the day before inoculation; compounds without asterisk (not 40 or 10 ppm)

Cc1cc(C(F)(F)F)nn1CC(=O)N1CCC(c2nc(C(=O)N(C)Cc3ccccc3)cs2)CC1 [compound 248]: 100%
Cc1cc(C)n(CC(=O)N2CCC(c3nc(C(=O)N(C)[C@H](C)c4ccccc4)cs3)CC2)n1 [compound 65]: 100%
Cc1ccc(C)c(CC(=O)N2CCC(c3nc(C(=O)N(C)[C@H](C)c4cccc(C(F)(F)F)c4)cs3)CC2)c1 [compound 56]: 93%

Consider the additional compound presented here.
[Q] Can you look up the measured Test C disease rating (100 = 100% disease control, 0 = no disease control) of Cc1ccc(C)c(CC(=O)N2CCC(c3nc(C(=O)N(C)C4CCCC(C)C4C)cs3)CC2)c1 (stereo not shown) [compound 177] for me?
[A] 100%

* * *

# Test system: Erysiphe graminis f. sp. tritici
# experiment notes: Test E: wheat powdery mildew, spray the day before inoculation (disease rating, 100 = 100% disease control)
# Format: in vivo
# condition details: sprayed the day before inoculation, 7 days at 20° C., tested at 10 ppm (**)
assay metric: Test E disease rating (100 = 100% disease control, 0 = no disease control)
Form rule: numeric answer, no unit written next to it.

Cc1cc(C(F)(F)F)nn1CC(=O)N1C=CC(c2nc(C(=O)N(C)[C@@H]3CCCc4ccccc43)cs2)CC1 (stereo partly shown): 0
Cc1cc(C(F)(F)F)nn1CC(=O)N1CCC(c2nc(C(=O)N3Cc4ccccc4C3C)cs2)CC1 (stereo not shown): 0

[Q] Param readout = Test E disease rating (100 = 100% disease control, 0 = no disease control); param system = Erysiphe graminis f. sp. tritici; param query = COc1ccccc1C(C)N(C)C(=O)c1csc(C2CCN(C(=O)Cn3nc(C(F)(F)F)cc3C)CC2)n1 (stereo not shown) ; response: value
[A] 0

[Q] Quick check: Test E disease rating (100 = 100% disease control, 0 = no disease control) on Erysiphe graminis f. sp. tritici, item Cc1cc(C(F)(F)F)nn1CC(=O)N1CCC(c2nc(C(=O)N(C)C(C)c3ccccc3Br)cs2)CC1 (stereo not shown) ?
[A] 19

* * *

Items are presented alongside their recorded Test D disease rating (100 = 100% disease control, 0 = no disease control).
# Test system: Phytophthora infestans
# experiment notes: whole plant or invertebrate
# Format: in vivo
# condition details: tomato late blight; spray 17 h after inoculation; compounds without asterisk (not 40 or 10 ppm)
Give the value in % but do not write % after it.

Reference set, count: 8
C[C@H](c1ccccc1)N(C)C(=O)c1csc(C2CCN(C(=O)Cn3cc(Br)cn3)CC2)n1: 0
C[C@H](c1ccccc1)N(C)C(=O)c1coc(C2CCN(C(=O)Nc3cccc(C(F)(F)F)c3)CC2)n1: 0
COC(=O)[C@H](c1ccccc1)N(C)C(=O)c1csc(C2CCN(C(=O)Cn3nc(C(F)(F)F)cc3C)CC2)n1: 93
C[C@H](c1ccccc1)N(C)C(=O)c1csc(C2CCN(C(=O)Cc3ccncc3)CC2)n1: 0
C[C@H](c1ccccc1)N(C)C(=O)c1csc(C2CCN(C(=O)Cn3cnc(C(F)(F)F)n3)CC2)n1: 96
Cc1ccc(C)c(CC(=O)N2CCN(c3nc(C(=O)N(C)[C@H](C)c4ccccc4)co3)CC2)c1: 99
CCC1C=Cc2ccccc2C1N(C)C(=O)c1csc(C2CCN(C(=O)Cn3nc(C(F)(F)F)cc3C)CC2)n1 (stereo not drawn): 99
CCc1cccc(CC(=O)N2CCC(c3nc(C(=O)N(C)[C@H](C)c4ccccc4)cs3)CC2)c1: 33

[Q] Please report the recorded Test D disease rating (100 = 100% disease control, 0 = no disease control) for Cc1ccc(C)c(CC(=O)N2CCC(c3nc(C(=O)N(C)C4CCCc5sccc54)cs3)CC2)c1 (stereo not drawn) .
[A] 100

[Q] Please look up its Test D disease rating (100 = 100% disease control, 0 = no disease control): C[C@H](c1ccccc1)N(C)C(=O)c1csc(C2CCN(C(=O)Cn3cnc(C(C)(C)C)c3)CC2)n1
[A] 0

[Q] Name the recorded Test D disease rating (100 = 100% disease control, 0 = no disease control) for CC[C@H](c1ccccc1)N(C)C(=O)c1csc(C2CCN(C(=O)Cc3ccccc3OC)CC2)n1 .
[A] 99

[Q] Could you tell me which Test D disease rating (100 = 100% disease control, 0 = no disease control) is on file for Cc1ccc(C)c(CC(=O)N2CCC(c3nc(C(=O)N(C)[C@@H]4CCc5ccccc54)cs3)CC2)c1 ?
[A] 100

[Q] What does the data say about its Test D disease rating (100 = 100% disease control, 0 = no disease control)? Entry: Cc1ccc(C)c(CC(=O)N2CCC(c3nc(C(=O)N(C)[C@H](C)c4ccc(Cl)cc4)cs3)CC2)c1
[A] 42

[Q] Test D disease rating (100 = 100% disease control, 0 = no disease control) for Cc1ccc(C)c(CC(=O)N2CCC(c3nc(C(=O)N(C)C4CCCc5ccccc54)cs3)CC2)c1 (stereo not drawn) ?
[A] 99

[Q] Requested read-out: Test D disease rating (100 = 100% disease control, 0 = no disease control). Entry: CCCCC(c1ccccc1)N(C)C(=O)c1csc(C2CCN(C(=O)Cc3cc(C)ccc3C)CC2)n1 (stereo not drawn)
[A] 9

[Q] I am curious: what Test D disease rating (100 = 100% disease control, 0 = no disease control) value has been reported for Cc1cc(C(F)(F)F)nn1CC(=O)N1CCC(c2nc(C(=O)N(C)C3c4ccccc4C=CC3C)cs2)CC1 (stereo not drawn) ?
[A] 94
